The measurements presented in this section are drawn from patent US20220031800A1.

Assay: Trypan blue viability of human RPE cells (ARPE-19) exposed to hydrogen peroxide
Assay type: cell-based
Conditions: human, ARPE-19 cells (human RPE cells); 100 μM H2O2 alone, 8 hours; read-out: Reduction of cell viability
Quantity kind: cytotoxicity at 8 h, 100 μM (%)
One number for each entry, in %.

q: Tell me its cytotoxicity at 8 h, 100 μM given OO [H2O2, hydrogen peroxide, reference compound] as the entry.
a: 22

----------
Experiment: Trypan blue viability of primary mouse Müller cells exposed to kainic acid
Format: cell-based, CD1 mice
Conditions: CD1, mouse; 500 μM kainic acid alone, 48 hours; read-out: Reduction of Muller cell viability
Quantity kind: cytotoxicity at 48 h, 500 μM (%)
Answers are plain numbers, in %.

q: Tell me its cytotoxicity at 48 h, 500 μM given C=C(C)[C@H]1CN[C@H](C(=O)O)[C@H]1CC(=O)O [kainic acid, reference compound] as the entry.
a: 32
